Hello, the source for this data is patent US20250340662A1, in case you need it.

Molecular target: T1, Human v6-peptide (human, N-terminal biotin)
T1 construct: Bachem #4108947, 43 amino acids, synthetic; also called Hm v6-peptide; hm v6-peptide
T1 peptide: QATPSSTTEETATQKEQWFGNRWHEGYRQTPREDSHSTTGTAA
Assay: SPR SCK, antibody immobilised, peptide injected
experimental.readout: kon (M⁻¹ s⁻¹)
API: value field is a number in M⁻¹ s⁻¹; no unit string.

// known answers, use as guide
So, AL-MN114-71 IgG1 LALA IAHA (antibody, V domains shown, Human IgG1 LALA IAHA, kappa) VH: EVQLLESGGGLVQPGGSLRLSCAASGFSFRSFAMSWVRQAPGKGLEWVSAISGGGSSTFYADSVKGRFTISRDNSKNTLYLQMNSLRAEDTAVYYCARHYYSDSDYRSSAAMDYWGQGTLVTVSS VL: DIQMTQSPSSLSASVGDRVTITCRASQSISSYLNWYQQKPGKAPKLLIYAASTLQSGVPSRFSGSGSGTDFTLTISSLQPEDFATYYCQQDLYLLTFGQGTKLEIK ? Its kon was 620000

So, AL-MN114-132 IgG1 LALA IAHA (antibody, V domains shown, Human IgG1 LALA IAHA, kappa) VH: EVQLLESGGGLVQPGGSLRLSCAASGFTFSSYAMSWVRQAPGKGLEWVSAISGGGSSTYYADSVKGRFTISRDNSKNTLYLQMNSLRAEDTAVYYCARHYYSDSDYRSSAAMDYWGQGTLVTVSS VL: DIQMTQSPSSLSASVGDRVTITCRASQSISSYLNWYQQKPGKAPKLLIYAASSLQSGVPSRFSGSGSGTDFTLTISSLQPEDFATYYCQQDLYLLTFGQGTKLEIK ? Its kon was 730000

Turning to the following binder.
So, AL-MN114-444 IgG1 LALA IAHA (antibody, V domains shown, Human IgG1 LALA IAHA, kappa) VH: EVQLLESGGGLVQPGGSLRLSCAASGFTFRSFAMSWVRQAPGKGLEWVSAISGGGSSTFYADSVKGRFTISRDNSKNTLYLQMNSLRAEDTAVYYCARHYYSDSDYRSSAAMDYWGQGTLVTVSS VL: DIQMTQSPSSLSASVGDRVTITCRASQSIGSYLNWYQQKPGKAPKLLIYSASSLQSGVPSRFSGSGSGTDFTLTISSLQPEDFATYYCQQDLYLLTFGQGTKLEIK ? Its kon was 710000
